Hello, the source for this data is patent US10100114B2, in case you need it.

// reported MFI per item
tested on: SW620 (Trop-2 −) cells; experiment: Flow cytometry binding, SW620 cells; format: cell-based; conditions: Table 10, 300,000 cells, 1 ug antibody
quantity-kind: MFI

molecule	quantity-kind	test-value
h7E6_L: humanized anti-Trop-2 antibody comprising SEQ ID NOs: 4 and 6 (antibody, V domains shown) VH: QVQLQESGPGLVKPSETLSLTCTVSGGSISSYGVHWIRQPPGKGLEWIGVIWTGGSTDYNSALMSRVTISVDTSKNQFSLKLSSVTAADTAVYYCARDGDYDRYTMDYWGQGTLVTVSS VL: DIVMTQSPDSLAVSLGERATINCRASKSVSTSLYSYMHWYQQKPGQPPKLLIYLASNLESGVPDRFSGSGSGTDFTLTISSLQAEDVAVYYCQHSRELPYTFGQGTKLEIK	MFI	158
h7E6_SVG: humanized anti-Trop-2 antibody, VL SEQ ID NO: 3, VH SEQ ID NO: 5 (antibody, V domains shown) VH: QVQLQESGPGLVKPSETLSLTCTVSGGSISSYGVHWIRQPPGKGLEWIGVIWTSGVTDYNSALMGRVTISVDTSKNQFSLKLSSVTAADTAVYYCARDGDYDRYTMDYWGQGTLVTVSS VL: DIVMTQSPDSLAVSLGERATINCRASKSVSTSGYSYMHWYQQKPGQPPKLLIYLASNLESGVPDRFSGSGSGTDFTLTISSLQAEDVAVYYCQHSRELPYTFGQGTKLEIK	MFI	139
h7E6_N: humanized anti-Trop-2 7E6 antibody, presumably VH SEQ ID NO: 4 with VL_N SEQ ID NO: 7 (antibody, V domains shown) VH: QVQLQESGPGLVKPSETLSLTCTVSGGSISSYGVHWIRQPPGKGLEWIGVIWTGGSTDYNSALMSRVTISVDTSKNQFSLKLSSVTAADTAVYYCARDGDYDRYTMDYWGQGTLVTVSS VL: DIVMTQSPDSLAVSLGERATINCRASKSVSTSNYSYMHWYQQKPGQPPKLLIYLASNLESGVPDRFSGSGSGTDFTLTISSLQAEDVAVYYCQHSRELPYTFGQGTKLEIK	MFI	151
h7E6: humanized anti-Trop-2 antibody, VL SEQ ID NO: 3, VH SEQ ID NO: 4 (antibody, V domains shown) VH: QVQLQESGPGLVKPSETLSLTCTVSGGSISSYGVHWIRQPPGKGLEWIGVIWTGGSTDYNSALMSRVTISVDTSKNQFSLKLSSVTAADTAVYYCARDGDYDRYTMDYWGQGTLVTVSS VL: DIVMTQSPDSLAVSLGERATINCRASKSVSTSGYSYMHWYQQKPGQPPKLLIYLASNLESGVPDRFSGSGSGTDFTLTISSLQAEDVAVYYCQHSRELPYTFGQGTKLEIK	MFI	143
